All figures here come from PubChem BioAssay AID651800.

Tested on: T-cell receptor (TCR)
Test: small molecules blocking TCR binding to CD3 – biochemical, fluorescence, TAMRA-labeled TCR probe, primary screen (AID 651800);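 note: recombinant mutant TCR 2C K166C tagged with TAMRA read by polarization; 0% = receptor in buffer alone and 100% = receptor with positive control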
Details: at 9.4 µM
The campaign covered roughly 360,000 compounds. About 1,300 (0.36%) were called active. Cut-off read from the data, not from the text of the source: active = inhibition above about 19%; inactive = the rest. Many of the other results were omitted from the sample, so actives are more common in it than they were.
A correct response names exactly one class from label 1 for active, label 0 for inactive

The examples below pair each entry with its known result.
1. COC(=O)N1Cc2ccnnc2CC1c1ccccc1Br (centres undefined) ... label 0
2. CCc1ccc(C2=CC(=O)CC(C)(C)C2=O)cc1 ... label 0
3. CCOC(=O)/C=C/c1ccccc1O ... label 0
4. CC(=O)N1c2ccccc2N(Cc2ccc([N+](=O)[O-])cc2)C(=O)C1(C)C ... label 0
5. O=C(NCc1ccccc1)[C@@H]1CCCN1C(=O)[C@H]1CCCN1C(=O)c1cccc(Cl)c1 ... label 0

Challenge: Test call, this molecule: CCOc1ccc(-n2c(O)c(/C=N/Nc3nnc(C)c(=O)[nH]3)c3ccccc3c2=O)cc1
Response given: label 1

Challenge: Write down the call the test reported for this molecule. Item: COc1cccc2c1C(=O)c1c(O)c3c(c(O)c1C2=O)CC(O)(C(C)=NNC(=O)c1ccc(Cl)c(Cl)c1)CC3OC1CC(N)C(O)C(C)O1 (centres undefined)
Response given: label 1

Challenge: Hi team, can someone confirm the assay call for COC(=O)c1ccc(CN2C(=O)[C@]3(OCCC=C[C@H]3C)c3c(Br)cccc32)cc1 ?
Response given: label 0

Challenge: Lab log entry: CN(C)CCNC(=O)C(C(=O)c1ccccc1)n1ccccc1=O (centres undefined) — outcome as called in the assay?
Response given: label 1

Challenge: What did the test return for O=C(C(=O)N1CCC(CNS(=O)(=O)Cc2ccccc2)CC1)c1cc2ccccc2o1 ?
Response given: label 0

Challenge: Recorded test outcome, item CCOC(=O)C1CSCCS(=O)(=O)N1Cc1ccc(Cl)cc1 (centres undefined)
Response given: label 0

Challenge: Any idea what this test logged for CCOC(=O)C1=C(C(=O)OCC)C2N(Cc3ccc(C#N)cc3)c3ccccc3[C@@]23C[C@@H](C(=O)OC)N(S(=O)(=O)c2ccc(F)cc2)C3=N1 (some centres undefined) ?
Response given: label 0

Challenge: For this molecule, state the assay outcome: O=C(NCc1ccccc1)[C@H]1CCCN1C(=O)[C@H]1CCCN1C(=O)c1cc(F)cc(F)c1
Response given: label 0

Challenge: Answer briefly: the call reported for CC(c1ccccc1)n1c(NCCCn2ccnc2)nc2c1c(=O)[nH]c(=O)n2C (centres undefined) in this assay.
Response given: label 0

Challenge: In this assay, the call recorded for COc1ccccc1C(=O)c1ccccc1C(=O)c1ccccc1 was what?
Response given: label 0

Challenge: What did the test return for O=C1Nc2ccccc2C1=NN=Cc1ccco1 ?
Response given: label 0

Challenge: In this assay, the call recorded for COc1ccc(C2=CN(Cc3ccccc3)C(c3ccc(OC)cc3)CC2=O)cc1 (centres undefined) was what?
Response given: label 0

Challenge: Please state the recorded outcome for this molecule: C[C@@H]1CN([C@H](C)CO)C(=O)CCCn2cc(nn2)CO[C@H]1CN(C)C(=O)Nc1ccc(N2CCCCC2)cc1
Response given: label 0

Challenge: For Nc1ccc2nc3c(=O)[nH]c(=S)[nH]c3nc2c1 , what call appears in the results of this test?
Response given: label 1

Challenge: Record lookup: outcome of this test for COc1ccc(Cc2nnc(SCC(=O)c3cccc([N+](=O)[O-])c3)n2C)cc1 ?
Response given: label 0
